B1: minF1; the commonest letter at each place (parent)
chain: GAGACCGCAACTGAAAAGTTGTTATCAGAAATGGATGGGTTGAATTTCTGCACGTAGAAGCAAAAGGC

Variants of: B1
Experiment: fraction ligated after 30 min (ligated reads / total reads); higher = more ligase activity
Conditions: with F1*subA RNA substrate (template-directed ligation), 42 °C
fraction ligated values, listed per item
Keep the answer to the number alone.

{"mutant.id": "A31T T36G", "fraction ligated": 0.0351}
{"mutant.id": "T36C G42C", "fraction ligated": 0.00306}
{"mutant.id": "C26G G42T", "fraction ligated": 0.00229}
{"mutant.id": "A24G A43C", "fraction ligated": 0.0035}
{"mutant.id": "A27C G37T", "fraction ligated": 0.0224}

I'd like to know its fraction ligated. The variant in question is T25G G28A
0.0158

Okay, and G34T G37A ?
0.00473

Then this variant: C26G G33C
0.00704

Same again, this time with G33T A35G
0.0792

Next record, please: A30G G34C
0.00227

Try this variant next: A24G A31T
0.0427

Every entry's value here was drawn from the supplement of paper PMC6755084.
